- STUDY_SYSTEM: p53-Mdm2 interaction (N-terminal domain of Mdm2 protein, amino acids 1-111) (Homo sapiens, UniProt Q00987)
- Construct: N-terminal domain of Mdm2 protein (amino acids 1-111)
- Sequence (Q00987 1-111): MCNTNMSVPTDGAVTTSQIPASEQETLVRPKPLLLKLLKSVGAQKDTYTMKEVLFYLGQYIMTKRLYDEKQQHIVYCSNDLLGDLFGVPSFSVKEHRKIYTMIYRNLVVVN
- ASSAY_DETAILS: Fluorescence polarization (FP) binding assay of p53-Mdm2 interaction
- CONDITION_PARAMETERS: FP assay, 130 nM Mdm2, FAM-labelled p53 peptide; Ki transformed from IC50 using Kenakin equation
MEASURED_PROPERTY: Ki (nM)
Numeric answer only, unit nM assumed.

Examples with their reported Ki follow.
Cc1cccc(-n2nc3c(c2C(C)C)C2(C(=O)Nc4cc(Cl)ccc42)N(c2cc(Cl)ccc2C)C3=O)c1 (stereo not shown); 67
CC(C)OCC(C)(C)C(=O)C1=C(O)C(=O)N(c2cccc(Cl)c2)C12C(=O)Nc1cc(Cl)ccc12 (stereo not shown); 196
COc1ccc(-n2nc3c(c2C(C)C)C2(C(=O)Nc4cc(Cl)ccc42)N(c2cc(Cl)ccc2C)C3=O)c(OC)n1 (stereo not shown); 3.3
COc1ccccc1-n1cc2c(c1C(C)C)C1(C(=O)Nc3cc(Cl)ccc31)N(c1cccc(Cl)c1)C2=O (stereo not shown); 5.3
O=C1C(O)=C(Sc2ccc(Cl)cc2)C2(C(=O)Nc3cc(Cl)ccc32)N1c1cccc(Cl)c1 (stereo not shown); 123

The reported value for COc1ccc(C(N)=O)cc1-n1cc2c(c1C(C)C)C1(C(=O)Nc3cc(Cl)ccc31)N(c1cc(Cl)ccc1C)C2=O (stereo not shown) in terms of Ki is 1.8

The reported value for NC(=O)CSC1=C(c2ccccc2)C2(C(=O)Nc3cc(Cl)ccc32)N(c2cccc(Cl)c2)C1=O (stereo not shown) in terms of Ki is 581

The reported value for COc1ccc(-n2cc3c(c2C(C)C)[C@@]2(C(=O)Nc4cc(Cl)ccc42)N(c2cc(Cl)ccc2C)C3=O)c(OC)c1 in terms of Ki is 1.9

The reported value for O=C1C(O)=C(c2ccccc2)C2(C(=O)Nc3cc(F)ccc32)N1c1cccc(Cl)c1 (stereo not shown) in terms of Ki is 90

The reported value for COc1ccc(C(N)=O)cc1-n1cc2c(c1C(C)C)[C@@]1(C(=O)Nc3cc(Cl)ccc31)N(c1cc(Cl)ccc1C)C2=O in terms of Ki is 1.7

The reported value for COc1ccc(C(=O)O)cc1-n1nc2c(c1C(C)C)C1(C(=O)Nc3cc(Cl)ccc31)N(c1cc(Cl)ccc1O)C2=O (stereo not shown) in terms of Ki is 3.6

The reported value for COc1ccccc1-n1nc2c(c1C(C)C)[C@@]1(C(=O)Nc3cc(Cl)ccc31)N(c1cncc(Cl)c1)C2=O [Compound 81] in terms of Ki is 2.2

The reported value for COc1ccc(CSC2=C(O)C(=O)N(c3cccc(Cl)c3)C23C(=O)Nc2cc(Cl)ccc23)cc1 (stereo not shown) in terms of Ki is 178

The reported value for COc1ccc(Cl)cc1N1C(=O)c2n[nH]c(C(C)(C)C)c2C12C(=O)Nc1cc(Cl)ccc12 (stereo not shown) in terms of Ki is 70

The reported value for COc1ccccc1-n1nc2c(c1C(C)C)C1(C(=O)Nc3cc(Cl)ccc31)N(c1cc(Cl)ccc1OCCS(C)(=O)=O)C2=O (stereo not shown) in terms of Ki is 42

The reported value for COc1ccccc1-n1cc2c(c1C(C)C)C1(C(=O)Nc3cc(Cl)ccc31)N(c1cc(Cl)ccc1C(N)=O)C2=O (stereo not shown) in terms of Ki is 6.7

The reported value for CO[C@H]1CNCC[C@H]1n1cc2c(c1C(C)C)[C@@]1(C(=O)Nc3cc(Cl)ccc31)N(c1cc(Cl)ccc1C)C2=O in terms of Ki is 4.5

The reported value for CC(C)(C)CN1C(=O)C(O)=C(c2cccc(Cl)c2)C12C(=O)Nc1cc(Cl)ccc12 (stereo not shown) in terms of Ki is 295

Data origin: patent US20170129903A1
